tested on: SNB-75 CNS; assay: NCI tumour cell line growth inhibition, 48 h
test-readout: TGI

Previously resolved entries follow.
| compound | target-desc | TGI |
| --- | --- | --- |
| CC1(C)[C@@H](Cn2nnc3c(N)ncnc32)CC[C@@]1(C)CO | SNB-75 CNS | > 100 µM |
| Cn1cc(C2=C(c3cn(C)c4cc(C(=O)O)ccc34)C(=O)NC2=O)c2ccccc21 | SNB-75 CNS | > 25 µM |
| C[C@]12CCc3nonc3C1CC[C@@H]1C2CC[C@]2(C)C(=O)/C(=N\O)CC12 (stereo partly specified) | SNB-75 CNS | > 100 µM |
| CC(C)(Oc1ccc(Cl)cc1)C(=O)NC1C2CC3CC1CC(NS(C)(=O)=O)(C3)C2 (stereo unspecified) | SNB-75 CNS | > 100 µM |
| CC(=O)NC(C)(C)C1CC=C(C)/C(=N\O)C1 (stereo unspecified) | SNB-75 CNS | > 100 µM |

For CN(CC(=O)O)c1ncc2c(n1)-c1ccccc1OC2c1ccccc1 (stereo unspecified) the compound record lists TGI as > 100 µM

---

test system: HOP-92 NSCLC; test: NCI tumour cell line growth inhibition, 48 h; in the data active = GI50 below about 0.43 µM; inactive = the rest
In this exercise, the only acceptable responses are active, inactive

| test-smiles | target-desc | category-label |
| --- | --- | --- |
| CCOC(=O)c1ccc(NC(=O)Nc2nccs2)cc1 | HOP-92 NSCLC | inactive |
| COc1cc(-c2cc(/C=C3\C(=O)Nc4ccc(Cl)cc43)[nH]n2)cc(OC)c1OC | HOP-92 NSCLC | inactive |
| C=C1C(=O)O[C@H]2[C@H]1CC/C(COC(=O)NCc1[nH]nc3ccccc13)=C\CC[C@@]1(C)O[C@@H]21 | HOP-92 NSCLC | inactive |
| Cc1nn(-c2ccccc2)c(-n2ccnc2)c1/C=N/Nc1nc(-c2ccc(Cl)c(Cl)c2)cs1 | HOP-92 NSCLC | active |

Next up:
Query: Please state the recorded outcome for this molecule: `O=[N+]([O-])c1cc([N+](=O)[O-])c(N2CCCC2)cc1NN=C(c1ccc(O)cc1)c1ccc(O)cc1`
Response: inactive

---

Quick reference: TGI of the listed items.
test system: XF 498 CNS; test: NCI tumour cell line growth inhibition, 48 h

Previously resolved entries follow.
| compound | reported-value |
| --- | --- |
| Cc1ccc(Nc2nc3c(s2)C(=O)c2ccccc2C3=O)cc1 | 3.76 µM |
| COc1ccc(N(CC(=O)O)S(=O)(=O)c2ccccc2)cc1 | > 100 µM |
| CC1(C)CC(=O)C(C(=O)C(=O)NC2=C(Cl)C(=O)c3ccccc3C2=O)C(=O)C1 | > 100 µM |
| Cc1nc(C(N)=S)sc1C(=O)CC(=O)C(=O)Nc1c(C(C)C)cccc1C(C)C | 48.8 µM |
| CN(N=O)C(=O)N(N)CCCCC(NC(=O)OCc1ccccc1)C(=O)OCc1ccccc1 (stereo unspecified) | 32.2 µM |

For `COc1cc(OC)c(C#N)c(OC)c1C` the compound record lists TGI as > 100 µM

For `O=C1C(c2ccccc2)=C(c2ccccc2)C(c2ccc(-c3ccc(C4=C(c5ccccc5)C(=O)C(c5ccccc5)=C4c4ccccc4)cc3)cc2)=C1c1ccccc1` the compound record lists TGI as > 100 µM

For `CCOC(=O)c1oc2c(OC)cc(Cl)c3c2c1CCC3` the compound record lists TGI as 80.6 µM

For `COC(=O)c1sc(=O)n(-c2ccccc2)c1SCc1ccccc1` the compound record lists TGI as > 100 µM

For `CC(C)(Oc1ccc(C(=O)c2ccc(Cl)cc2)cc1Cl)C(=O)Nc1c(Cl)cccc1Cl` the compound record lists TGI as > 100 µM

For `CCOC(=O)Cn1c(=O)n(C)c(=O)c2[nH]cnc21` the compound record lists TGI as > 100 µM
